- target.under.test: Toll-like receptor 7 (Homo sapiens, UniProt Q9NYK1)
- Sequence (Q9NYK1 whole entry): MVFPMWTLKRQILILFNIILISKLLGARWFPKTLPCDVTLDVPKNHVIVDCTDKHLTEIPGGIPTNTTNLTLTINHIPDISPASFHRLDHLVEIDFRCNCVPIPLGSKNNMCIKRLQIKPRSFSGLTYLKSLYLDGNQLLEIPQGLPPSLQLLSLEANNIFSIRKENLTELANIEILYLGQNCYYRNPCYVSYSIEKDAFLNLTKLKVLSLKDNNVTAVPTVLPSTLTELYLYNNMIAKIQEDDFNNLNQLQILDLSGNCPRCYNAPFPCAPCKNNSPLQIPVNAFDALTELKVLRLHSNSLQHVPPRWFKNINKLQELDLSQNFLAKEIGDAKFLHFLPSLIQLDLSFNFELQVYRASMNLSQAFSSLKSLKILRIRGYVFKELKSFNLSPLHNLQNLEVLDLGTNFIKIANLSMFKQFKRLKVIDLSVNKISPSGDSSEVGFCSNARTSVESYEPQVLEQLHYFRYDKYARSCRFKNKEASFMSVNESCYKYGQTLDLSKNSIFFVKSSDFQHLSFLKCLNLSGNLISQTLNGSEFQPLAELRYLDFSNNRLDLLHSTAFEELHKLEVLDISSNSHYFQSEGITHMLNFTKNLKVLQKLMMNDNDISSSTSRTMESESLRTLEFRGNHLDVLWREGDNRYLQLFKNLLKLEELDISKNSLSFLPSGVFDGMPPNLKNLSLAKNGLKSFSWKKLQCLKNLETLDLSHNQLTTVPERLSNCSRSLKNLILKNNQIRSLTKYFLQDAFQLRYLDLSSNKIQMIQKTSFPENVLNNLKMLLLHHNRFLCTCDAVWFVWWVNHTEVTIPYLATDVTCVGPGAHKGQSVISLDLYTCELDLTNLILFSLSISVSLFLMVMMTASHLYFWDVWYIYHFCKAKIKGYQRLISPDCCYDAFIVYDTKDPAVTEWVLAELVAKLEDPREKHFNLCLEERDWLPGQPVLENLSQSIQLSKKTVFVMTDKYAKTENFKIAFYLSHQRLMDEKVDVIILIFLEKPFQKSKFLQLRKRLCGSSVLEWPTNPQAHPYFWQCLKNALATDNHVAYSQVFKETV
Kindly supply the reported IC50 values for the records listed here.
One number for each entry, in µM.

For every item in the list below, what is its measured IC50?
1. COc1ccc(-c2cn3ccc(NCCCn4ccnc4)cc3n2)c(OC)c1
2. COc1ccc(-c2cn3ccc(N4CCNCC4)cc3n2)c(OCCCN2CCOCC2)c1
3. COc1ccc(-c2cn3ccc(N4CCN(C(=O)c5ccc(F)cc5)CC4)cc3n2)c(OCc2ccccc2)c1
4. COc1ccc(-c2cn3ccc(N(C)C)cc3n2)c(OC)c1
5. COc1ccc(-c2nc3cc(N4CCN(C5CCCC5)CC4)ccn3c2NCc2ccccc2)c(OC)c1

Output line:
[0.819, 1.35, 11, 3.78, 4.81]

These data points were gathered from ChEMBL document CHEMBL5126608.
